PDI values, listed per item
test: Drug loading using BAQ13 NPs
Assay type: physicochemical
recorded-conditions: BAQ13 NPs loaded with the drug or dye

Recorded results for 2 molecules are shown here.
molecule: CCCCCCCCCCCCCCCCCCN1C(=CC=CC=CC2=[N+](CCCCCCCCCCCCCCCCCC)c3ccccc3C2(C)C)C(C)(C)c2ccccc21.[O-][Cl+3]([O-])([O-])[O-] [Free DiD]
PDI: 0.1
//
molecule: Nc1cccc2c1CN(C1CCC(=O)NC1=O)C2=O (stereo not drawn) [Lenalidomide]
PDI: 0.069

Recorded PDI (molecule CC(=O)c1cc2c(o1)C(=O)c1ccccc1C2=O [Napabucasin] ): 0.101

---

Encapsulation efficiency values, listed per item
test: Drug loading using BAQ13 NPs
Assay type: physicochemical
recorded-conditions: drug or dye loaded in BAQ13 NPs
Report the figure in % without appending any unit label.

molecule: CC(=O)c1cc2c(o1)C(=O)c1ccccc1C2=O [Napabucasin]
readout-unit: %
Encapsulation efficiency: 85
//
molecule: CC(C)C[C@H](NC(=O)[C@H](Cc1ccccc1)NC(=O)c1cnccn1)B(O)O [Bortezomib]
readout-unit: %
Encapsulation efficiency: 89
//
molecule: Nc1cccc2c1CN(C1CCC(=O)NC1=O)C2=O (stereo not drawn) [Lenalidomide]
readout-unit: %
Encapsulation efficiency: 88
//
molecule: Cc1sc2c(c1C)C(c1ccc(Cl)cc1)=N[C@@H](CC(=O)OC(C)(C)C)c1nnc(C)n1-2 [JQ1]
readout-unit: %
Encapsulation efficiency: 92
//
molecule: COc1cc([C@@H]2c3cc4c(cc3[C@@H](O[C@@H]3O[C@@H]5CO[C@@H](C)O[C@H]5[C@H](O)[C@H]3O)[C@H]3COC(=O)[C@H]23)OCO4)cc(OC)c1O [Etoposide]
readout-unit: %
Encapsulation efficiency: 86
//
molecule: COc1ccc(-c2nc(-c3cc(C(F)(F)F)cc(C(F)(F)F)c3)n(Cc3ccc(C(N)=O)cc3)c2-c2ccc(OC)cc2)cc1 [Apoptozole]
readout-unit: %
Encapsulation efficiency: 93

Recorded Encapsulation efficiency (molecule CC[C@]1(O)C[C@@H]2CN(CCc3c([nH]c4ccccc34)[C@@](C(=O)OC)(c3cc4c(cc3OC)N(C)[C@H]3[C@@](O)(C(=O)OC)[C@H](OC(C)=O)[C@]5(CC)C=CCN6CC[C@]43[C@@H]65)C2)C1 [Vinblastine] ): 95

Recorded Encapsulation efficiency (molecule CCCCCCCCCCCCCCCCCCN1C(=CC=CC=CC2=[N+](CCCCCCCCCCCCCCCCCC)c3ccccc3C2(C)C)C(C)(C)c2ccccc21.[O-][Cl+3]([O-])([O-])[O-] [Free DiD] ): 100

Recorded Encapsulation efficiency (molecule CC1(C)CCC2=C(O1)c1ccccc1C(=O)C2=O [β-lapachone] ): 95

---

Size/diameter values, listed per item
test: Drug loading using BAQ13 NPs
Type: physicochemical
recorded-conditions: BAQ13 NPs loaded with the drug or dye
Protocol: Preparation and characterization of BAQ ONNs. NPs were prepared through the re-precipitation method. […] To determine the drug content in nanoformulations, the prepared drug-loaded NPs were cut off by centrifugal filter (ultracel-10 kDa, Millipore), and the absorbance of filtrate (diluted with DMSO, 1:10, volume ratio) was measured for calculation of drug concentrations. […]
Report the figure in nm without appending any unit label.

compound: CCCCCCCCCCCCCCCCCCN1C(=CC=CC=CC2=[N+](CCCCCCCCCCCCCCCCCC)c3ccccc3C2(C)C)C(C)(C)c2ccccc21.[O-][Cl+3]([O-])([O-])[O-] [Free DiD]
readout-unit: nm
Size/diameter: 120
--
compound: Cc1sc2c(c1C)C(c1ccc(Cl)cc1)=N[C@@H](CC(=O)OC(C)(C)C)c1nnc(C)n1-2 [JQ1]
readout-unit: nm
Size/diameter: 110
--
compound: COc1ccc(-c2nc(-c3cc(C(F)(F)F)cc(C(F)(F)F)c3)n(Cc3ccc(C(N)=O)cc3)c2-c2ccc(OC)cc2)cc1 [Apoptozole]
readout-unit: nm
Size/diameter: 85

Recorded Size/diameter (compound COc1cc([C@@H]2c3cc4c(cc3[C@@H](O[C@@H]3O[C@@H]5CO[C@@H](C)O[C@H]5[C@H](O)[C@H]3O)[C@H]3COC(=O)[C@H]23)OCO4)cc(OC)c1O [Etoposide] ): 69

Recorded Size/diameter (compound CC(=O)c1cc2c(o1)C(=O)c1ccccc1C2=O [Napabucasin] ): 110

Recorded Size/diameter (compound Nc1cccc2c1CN(C1CCC(=O)NC1=O)C2=O (stereo not drawn) [Lenalidomide] ): 85

---

Tested on: HCT116
test: MTS cell viability assay
Type: cell-based
recorded-conditions: Homo sapiens, HCT-116, 48 h; read-out: IC50 values from the 48 h MTS assay (μM) HCT116
recorded-metric: IC50 (µM)
Report the figure in µM without appending any unit label.

Recorded IC50 (compound CCc1c2c(nc3ccc(OC(=O)N4CCC(N5CCCCC5)CC4)cc13)-c1cc3c(c(=O)n1C2)COC(=O)[C@]3(O)CC [Irinotecan] ): 17

---

test: Drug loading using BAQ13 NPs
Assay type: physicochemical
recorded-conditions: BAQ13 NPs loaded with the drug or dye
recorded-metric: Size/diameter (nm)
Report the figure in nm without appending any unit label.

compound-structure: CC1(C)CCC2=C(O1)c1ccccc1C(=O)C2=O
result: 128
//
compound-structure: CC(C)C[C@H](NC(=O)[C@H](Cc1ccccc1)NC(=O)c1cnccn1)B(O)O
result: 92

Now, please, on to the next compound.
Recorded Size/diameter (compound `CC[C@]1(O)C[C@@H]2CN(CCc3c([nH]c4ccccc34)[C@@](C(=O)OC)(c3cc4c(cc3OC)N(C)[C@H]3[C@@](O)(C(=O)OC)[C@H](OC(C)=O)[C@]5(CC)C=CCN6CC[C@]43[C@@H]65)C2)C1` ): 60
